B1: OR4K15 (parent)
chain: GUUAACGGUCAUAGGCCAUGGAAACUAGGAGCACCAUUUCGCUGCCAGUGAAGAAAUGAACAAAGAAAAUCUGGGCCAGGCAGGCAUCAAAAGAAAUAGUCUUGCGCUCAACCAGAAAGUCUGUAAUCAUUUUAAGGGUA

variants of: B1; assay: self-cleavage, relative activity (ratio to wild type); higher = more cleavage; in vitro, sequencing; the parent is a self-cleaving ribozyme
Assign class by self-cleavage: not lower than 0.8 means y; lower than 0.8 means n.

INSERT INTO results (variant_key, category) VALUES
  ('C77U A117G', 'y'),
  ('U70C U100C', 'y'),
  ('A24C U130C', 'n'),
  ('A18G U108A', 'n'),
  ('A69G G75C', 'n'),
  ('A51G G74U', 'n'),
  ('A36G U127C', 'y'),
  ('U57A G75A', 'n'),
  ('A30U A129G', 'y'),
  ('A118G U120G', 'n'),
  ('G20U A47G', 'y'),
  ('A11G U122C', 'y'),
  ('U2A A117G', 'n'),
  ('A67G A111U', 'n'),
  ('C112U U122A', 'n'),
  ('G48C A67G', 'y'),
  ('U70C U133C', 'y'),
  ('U37G A47G', 'y'),
  ('A62G U130G', 'y'),
  ('C10A A47U', 'y');

Reference source: the RNAGym collection of RNA variant scans (doi:10.7554/elife.90254)
